Just for reference, paper PMC3094755 is where these values come from.

- Measurement target: PARP-1 F2 (Homo sapiens, UniProt P09874 103-214)
- Sequence (P09874 103-214): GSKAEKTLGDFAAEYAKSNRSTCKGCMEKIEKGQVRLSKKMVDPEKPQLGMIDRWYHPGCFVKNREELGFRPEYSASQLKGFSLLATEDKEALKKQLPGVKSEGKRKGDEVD
- Assay comment: fluorescence anisotropy; 50; 50 mM Tris-HCl pH 7.0, 150 uM ZnSO4, 4 mM DTT, 25 C; NaCl 0-200 mM (T2, as in cof; 10 nM DNA) or 25 mM (T3 mutants; 25 nM DNA)
- Study conditions: protein: recombinant; label: fluorescein-dT at T8; single-chain dumbbell, 18 bp with central nick, two tetraloops

{"Binder": "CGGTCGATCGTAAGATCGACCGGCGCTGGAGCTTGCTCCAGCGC (structured_DNA, 5'-phosphate) [44-nt nicked dumbbell, 5'-phosphate, fluorescein-dT]", "Value unit": "nM", "Kd": 130}
